Origin of values: PubChem BioAssay (NCI)

System: EKVX NSCLC
Test: NCI tumour cell line growth inhibition, 48 h
This section presents molecules with their documented TGI values.

Examples with their reported TGI follow.
MOLECULE | VALUE_TYPE | RESULT
COc1ccncc1C#Cc1cncc(C(=O)Nc2ccc(CN3CCN(C)CC3)c(C(F)(F)F)c2)c1 | TGI | > 100 µM
O=P(O)(Cc1ccccc1)c1ccccc1-c1ccccc1 | TGI | > 100 µM
Cc1ccc(-c2cc(-c3ccc(Cl)cc3)nc(/N=C3\C(=O)N(CN4CCOCC4)c4ccc(Cl)cc43)n2)cc1 | TGI | 89.4 µM
COc1ccc(-c2c(C#N)c(O)n(NS(=O)(=O)c3ccc(C)cc3)c(=O)c2C#N)cc1 | TGI | > 100 µM
CCOc1ccc(N2C(=O)/C(=C/c3ccc(N(CCC#N)CCC#N)cc3)N=C2c2cc([N+](=O)[O-])ccc2Cl)cc1 | TGI | > 100 µM
CC1=CC(=O)[C@@H](O)[C@]2(C)[C@H]3[C@@]4(O)OC[C@]35[C@H]([C@@H](C)[C@H]4O)[C@@H](O)C(=O)O[C@@H]5C[C@@H]12 | TGI | 6.31 µM
O=C(N/N=C1/C(=O)N(c2ccc(Cl)cc2Cl)C(=O)C(=O)C1c1nc2ccccc2o1)c1ccccc1O (stereo not drawn) | TGI | > 100 µM
CCOP(=O)(O)C(C)(C)NC | TGI | > 100 µM

query: For CCOc1ccc2c(c1)[n+]([O-])c(-c1ccccc1Cl)c(N)[n+]2[O-] , what is its reported TGI?
result: > 100 µM

query: For O=C(O)CSc1n[nH]c(-c2ccccc2)n1 , what is its reported TGI?
result: > 100 µM

query: For CCOC(=O)c1cc(C2(O)CCN(CC(C)CC)C2=O)c(-c2cc(C)no2)[nH]1 (stereo not drawn) , what is its reported TGI?
result: > 100 µM
